- System: GH16B β-agarase
- Experiment: Agarase activity assay (DNS method): effects of metal ions, reducing agent and EDTA on enzymatic activity
- Assay type: biochemical, Cellvibrio sp. KY-GH-1
- Cond: 1.0 mM metal ion/chemical; relative to untreated control; mean ± SD (n = 3)
Endpoint label: Relative activity (%)

## Task GET /values?readout=Relative activity (%)&item= [Ca+2].[Cl-].[Cl-]
## Result 110 (±6.85) %

## Task GET /values?readout=Relative activity (%)&item= O=C(O)CN(CCN(CC(=O)O)CC(=O)O)CC(=O)O [EDTA, ethylenediamine tetraacetic acid, reference compound]
## Result 95 (±2.02) %

## Task GET /values?readout=Relative activity (%)&item= [Cl-].[Na+]
## Result 109 (±5.33) %

## Task GET /values?readout=Relative activity (%)&item= O=S(=O)([O-])[O-].[Mn+2]
## Result 156 (±0.70) %

## Task GET /values?readout=Relative activity (%)&item= O=C(O)CCP(CCC(=O)O)CCC(=O)O [TCEP, tris(2-carboxyethyl)phosphine, reference compound]
## Result 109 (±2.85) %

## Task GET /values?readout=Relative activity (%)&item= O=S(=O)([O-])[O-].[Cu+2]
## Result 97 (±1.45) %

## Task GET /values?readout=Relative activity (%)&item= [Cl-].[Cl-].[Mg+2]
## Result 107 (±0.80) %

## Task GET /values?readout=Relative activity (%)&item= [Cl][Mn][Cl]
## Result 163 (±2.60) %

## Task GET /values?readout=Relative activity (%)&item= [Cl-].[K+]
## Result 109 (±6.41) %
